# target.entity: Luciferin 4-monooxygenase (Photinus pyralis) (UniProt P08659)
# Sequence (P08659 whole entry, looked up): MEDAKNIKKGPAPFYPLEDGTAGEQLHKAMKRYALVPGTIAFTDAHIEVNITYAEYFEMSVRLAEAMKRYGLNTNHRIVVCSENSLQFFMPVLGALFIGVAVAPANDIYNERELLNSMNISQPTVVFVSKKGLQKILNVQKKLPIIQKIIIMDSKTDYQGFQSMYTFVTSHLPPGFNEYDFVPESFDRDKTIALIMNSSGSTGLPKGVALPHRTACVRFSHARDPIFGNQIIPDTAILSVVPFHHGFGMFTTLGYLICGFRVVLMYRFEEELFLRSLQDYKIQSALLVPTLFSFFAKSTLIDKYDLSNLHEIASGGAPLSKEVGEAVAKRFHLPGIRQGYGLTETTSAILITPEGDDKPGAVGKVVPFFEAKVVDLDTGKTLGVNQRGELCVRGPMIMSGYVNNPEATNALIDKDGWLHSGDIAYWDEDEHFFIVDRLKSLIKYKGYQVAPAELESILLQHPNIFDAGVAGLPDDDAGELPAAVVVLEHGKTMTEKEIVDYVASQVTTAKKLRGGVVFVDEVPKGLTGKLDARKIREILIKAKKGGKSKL
# test: firefly luciferase enzyme inhibitors, primary screen, biochemical, luminescence, purified enzyme, 2006 set (AID 1141);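 also: cell-free assay with purified firefly luciferase at 100 ng per well in PBS; test concentration not given here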
# cond: SteadyGlo luminescence, 30 min, higher = more signal, called active from +8 up or from −8 down
Give measured z-score for each item. Keep answers brief.
Give bare numbers.

Reference set (3 entries):
compound: [N-]=[N+]=NCc1ccccc1[C@H]1OC(c2ccc(OCCCO)cc2)=N[C@@]1(Cc1ccccc1N=[N+]=[N-])C(N)=O
z-score: -3.23
--
compound: C#CCN(C(=O)OC(C)(C)C)[C@H](CO)c1ccccc1
z-score: 0.978
--
compound: CS(=O)(=O)CCOC(=O)C1=CC(CCCO)=CC(C2CC2)N(Cc2sc3ccccc3c2Cl)C=C1C(=O)OCCS(C)(=O)=O (centres undefined)
z-score: -1.14

Quick one: give me z-score for each item below, same order please.
1. CCCCC(=C=CC[C@H](O)c1ccccc1OCCO)CCO
2. O=C1OCC=C[C@H]2OC34C=CCN(Cn5nnc6ccccc65)C(=O)[C@H]3N(CCO)C(=O)[C@@H]4[C@@H]12 (some centres undefined)
3. O=C(c1ccccc1)N1Cc2ccccc2C[C@@]2(N=C(c3ccc(OCCCO)cc3)O[C@H]2c2ccccc2)C1=O
4. O=C1NC(=O)C2C1C=CC(C(O)c1ccc(F)cc1)N2Nc1ccc(Cl)cc1Cl (centres undefined)
5. CC(C)(C)OC(=O)N1[C@@H](C=C(Br)Br)COC1(C)C
6. COCCOC(=O)N1C(=O)[C@@]2(c3ccccc31)[C@H](C(=O)Nc1nc3ccccc3s1)[C@H]1C(=O)O[C@H](c3ccccc3)[C@H](c3ccccc3)N1[C@@H]2c1ccccc1OCCO
7. C=C(COC)C(=O)CC[C@H](OC(C)=O)c1ccc(CO)o1

Response given:
[0.207, 0.0848, -1.29, -1.32, -1.04, -0.653, 0.288]

Quick one: give me z-score for each item below, same order please.
1. O=C1O[C@H](c2ccccc2)[C@H](c2ccccc2)N2[C@H]1[C@@H](C(=O)Nc1nc3ccccc3s1)[C@]1(C(=O)Nc3ccccc31)[C@H]2c1ccccc1OCCO
2. C=C[C@@H](CO)NS(=O)(=O)c1ccc(Br)cc1
3. CC(C)N1C(=O)[C@@]2(Cc3ccccc31)c1ccccc1C(=O)N(Cc1ccccc1)[C@H]2c1ccc(CO)cc1
4. COC(=O)C(CC#Cc1ccc2c(c1)[C@]1(C(=O)N2)[C@H](c2ccc(OCCO)cc2)N2[C@H](c3ccccc3)[C@H](c3ccccc3)OC(=O)[C@H]2[C@@H]1C(N)=O)C(=O)OC

Response given:
1. 0.389
2. -1.23
3. -0.52
4. -1.38

Hi team, please reply with z-score for each item in this list.
1. COc1ccc(C#Cc2ccc3c(c2)[C@]2(C(=O)N3)[C@H](c3ccccc3OCCO)N3[C@H](c4ccccc4)[C@H](c4ccccc4)OC(=O)[C@H]3[C@@H]2C(=O)NC[C@H](O)c2ccccc2)cc1
2. CC(C)c1ccc(NN2C(C(O)c3ccccc3)C=CC3C(=O)N(c4ccccc4)C(=O)C32)cc1 (centres undefined)
3. C=CCNC(=O)[C@@H]1[C@H]2C(=O)O[C@H](c3ccccc3)[C@H](c3ccccc3)N2[C@H](c2ccc(O)cc2)[C@@]12C(=O)N(C(=O)OCCOC)c1ccc(C#CCC(C(=O)OC)C(=O)OC)cc12
4. COC(=O)[C@@]1(Cc2ccc(OC)cc2)[C@H]2c3cc(C(=O)N(C)C)n(Cc4c(CO)[nH]cc(C)c4=O)c3C[C@H]2CN1C(=O)c1ccccc1
5. O=C(N1CCOCC1)[C@]1(CCS(=O)(=O)c2ccccc2)N=C(c2ccc(OCCCO)cc2)O[C@@H]1c1ccccc1
6. CC(C)C[C@@H]1NC(=O)[C@H]2C[C@@H](C(=O)O)[C@@H](c3cccc(OCCO)c3)N2C1=O

Response given:
1. 0.412
2. -2.04
3. 0.367
4. 1.48
5. -1.55
6. -1.07

For each of the compounds below, state z-score.
1. C=CC[C@H](O)c1ccc(O)c2ccccc12
2. COc1cc2c(cc1OC)CN(C(=O)[C@@H]1[C@H]3C(=O)O[C@H](c4ccccc4)[C@H](c4ccccc4)N3[C@H](c3ccc(O)cc3)[C@@]13C(=O)Nc1ccc(C#CC4=CCCCC4)cc13)CC2
3. COC(=O)[C@@]1(Cc2ccc(F)cc2)[C@H]2c3cc(C(=O)N4CCCC4)n(Cc4ccc(OC(F)(F)F)cc4)c3C[C@H]2CN1C(=O)c1ccccc1
4. COc1ccc([Si](C)(C)[C@H]2[C@H](CCO)O[C@@]3(C(=O)N(Cc4ccccc4)c4ccc(NC(=O)[C@H](C)O)cc43)[C@@H]2C)cc1
5. C=CCOC(=O)[C@H]1[C@@H]2C(=O)O[C@@H](c3ccccc3)[C@@H](c3ccccc3)N2[C@@H](c2ccc(OCCOC(=O)[C@H]3C[C@H]4C(=O)NCC(=O)N4[C@H]3c3cccc(OCCO)c3)cc2)[C@]12C(=O)Nc1ccc(I)cc12

Response given:
1. -2.47
2. -1.33
3. 1.38
4. -0.355
5. -0.919

The following compounds each have a reported value; give each one's z-score.
1. C=C(CC1([C@@H](NP(=O)(c2ccccc2)c2ccccc2)[C@H]2C[C@@H]2CCCC)CC1)c1cccc(OC)c1
2. CC(C)C[C@@H]1NC(=O)[C@@H]2C[C@H](C(=O)NCCCCCCNC(=O)CS)[C@H](c3ccc(O)cc3)N2C1=O

Response given:
1. 2.59
2. -0.677

Your task in this section: give z-score for each listed record.
1. CCCCC=C[C@@H](NC(=O)C(C)(C)C)c1ccccc1
2. CC1C2C(CCCO)=CC(C3C(=O)N(C)C(=O)C23)N1Cc1cccc(OC(F)(F)F)c1 (centres undefined)

Response given:
1: 1.76; 2: -1.02
